testConditions: in n-pentanol, 308.15 K
valueKind: solubility (mole fraction)

input: So what's the measured solubility (mole fraction) for this one? `Nc1nc2ccc(OC(F)(F)F)cc2s1`
output: 0.281

* * *

testConditions: in 2-methoxyethanol, 303.15 K
valueKind: solubility (mole fraction)
Answers are plain numbers.

input: So what's the measured solubility (mole fraction) for this one? `Nc1nc2ccc(OC(F)(F)F)cc2s1`
output: 0.436

* * *

testConditions: in acetone, 278.15 K
valueKind: solubility (mole fraction)
Answers are plain numbers.

input: So what's the measured solubility (mole fraction) for this one? `Nc1nc2ccc(OC(F)(F)F)cc2s1`
output: 0.371

* * *

testConditions: in n-propyl acetate, 303.15 K
valueKind: solubility (mole fraction)
Answers are plain numbers.

input: So what's the measured solubility (mole fraction) for this one? `Nc1nc2ccc(OC(F)(F)F)cc2s1`
output: 0.398

Ref: BigSolDB 2.1
